system-under-test: GluN1/N2A (Rattus norvegicus)
assay-details: Two-electrode voltage-clamp recordings, Xenopus oocytes expressing GluN1/N2A
test-parameters: co-applied with 100 μM glutamate and 0.5 μM glycine

- compound-smiles: "O=C(O)c1cc(Nc2nc(-c3cccnc3)cs2)ccc1O"
  IC50: "> 300 µM"

----------
Listing of entries alongside the reported pIC50.
system-under-test: GluN1(F484A/T518L)/N3A (Rattus norvegicus)
assay-details: Two-electrode voltage-clamp recordings, Xenopus oocytes expressing GluN1
Type: cell-based
test-parameters: IC50, co-applied with 100 μM glycine; N.E., no significant effect at 300 μM
pIC50: −log10 of the molar value.

- compound: "O=c1[nH]c2nonc2nc1O [TK80]"
  relation: "<"
  pIC50: 3.52
- compound: "O=C(O)c1cc(C(=O)c2ccc(Cl)cc2Cl)c[nH]1 [TK30]"
  relation: "="
  pIC50: 4.85

----------
system-under-test: GluN1(F484A)/N3A (Rattus norvegicus, UniProt P35439+Q9R1M7, F484A)
Sequence (Q9R1M7 24-1115 isoform Q9R1M7-2 limits assumed, stated change not applied, other chains not shown): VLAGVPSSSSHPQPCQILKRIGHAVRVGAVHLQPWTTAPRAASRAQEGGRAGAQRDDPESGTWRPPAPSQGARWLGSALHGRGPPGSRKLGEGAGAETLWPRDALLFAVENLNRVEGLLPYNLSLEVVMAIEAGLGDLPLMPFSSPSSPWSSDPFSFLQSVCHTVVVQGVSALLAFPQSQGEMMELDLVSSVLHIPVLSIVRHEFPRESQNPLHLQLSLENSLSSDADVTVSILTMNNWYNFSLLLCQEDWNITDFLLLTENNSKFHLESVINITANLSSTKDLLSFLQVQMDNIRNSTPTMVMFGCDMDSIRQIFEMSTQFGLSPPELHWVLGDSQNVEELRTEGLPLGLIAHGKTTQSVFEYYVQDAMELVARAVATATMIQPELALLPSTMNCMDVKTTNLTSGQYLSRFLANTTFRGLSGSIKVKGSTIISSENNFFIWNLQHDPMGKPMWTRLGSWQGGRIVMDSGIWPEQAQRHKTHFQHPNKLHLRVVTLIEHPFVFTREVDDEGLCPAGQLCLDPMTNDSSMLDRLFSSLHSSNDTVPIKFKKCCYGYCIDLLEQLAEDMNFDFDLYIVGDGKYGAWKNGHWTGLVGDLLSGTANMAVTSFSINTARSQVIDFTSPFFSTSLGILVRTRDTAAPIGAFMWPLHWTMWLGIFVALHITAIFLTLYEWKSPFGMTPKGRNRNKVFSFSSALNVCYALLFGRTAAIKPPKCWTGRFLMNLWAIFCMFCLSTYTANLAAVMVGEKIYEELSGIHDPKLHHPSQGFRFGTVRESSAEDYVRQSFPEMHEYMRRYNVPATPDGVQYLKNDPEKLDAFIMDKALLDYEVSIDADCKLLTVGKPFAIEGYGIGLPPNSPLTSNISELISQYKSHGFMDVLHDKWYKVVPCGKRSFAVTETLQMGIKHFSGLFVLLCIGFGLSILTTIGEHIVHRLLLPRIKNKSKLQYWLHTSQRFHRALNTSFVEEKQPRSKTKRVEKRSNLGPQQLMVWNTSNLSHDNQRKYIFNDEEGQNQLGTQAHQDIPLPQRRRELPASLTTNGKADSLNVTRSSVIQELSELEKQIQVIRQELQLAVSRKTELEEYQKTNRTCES
assay-details: Two-electrode voltage-clamp recordings, Xenopus oocytes expressing GluN1
Assay type: cell-based
test-parameters: co-applied with 100 μM glycine

- compound: "O=C(O)c1cc(Nc2nc(-c3cccnc3)cs2)ccc1O [TK13]"
  IC50 / µM: 93

----------
system-under-test: GluN1(F484A/T518L)/N3B (Rattus norvegicus)
assay-details: Two-electrode voltage-clamp recordings, Xenopus oocytes expressing GluN1
Format: cell-based
test-parameters: co-applied with 100 μM glycine
pIC50: −log10 of the molar value.

- compound-smiles: "O=C(O)c1cc(Nc2nc(-c3cccnc3)cs2)ccc1O"
  pIC50: 4.31

----------
system-under-test: GluN1(T518L)/N3A (Rattus norvegicus, UniProt P35439+Q9R1M7, T518L)
Sequence (Q9R1M7 24-1115 isoform Q9R1M7-2 limits assumed, stated change not applied, other chains not shown): as above
assay-details: Two-electrode voltage-clamp recordings, Xenopus oocytes expressing GluN1
Format: cell-based
pIC50: −log10 of the molar value.
reported-metric: pIC50

- compound-smiles: "O=C(O)c1cc(C(=O)c2ccc(Cl)cc2Cl)c[nH]1"
  reported-metric: "pIC50"
  assay-result: 5.01

----------
system-under-test: GluN1(T518L)/N3A (Rattus norvegicus, UniProt P35439+Q9R1M7, T518L)
assay-details: Two-electrode voltage-clamp recordings, Xenopus oocytes expressing GluN1
Assay type: cell-based
test-parameters: co-applied with 50 μM glycine
pIC50: −log10 of the molar value.

- compound-smiles: "O=C(O)c1cc(Nc2nc(-c3cccnc3)cs2)ccc1O"
  pIC50: 4.00

----------
system-under-test: GluN1(F484A)/N3A (Rattus norvegicus, UniProt P35439+Q9R1M7, F484A)
assay-details: Two-electrode voltage-clamp recordings, Xenopus oocytes expressing GluN1
Type: cell-based

- compound-smiles: "O=C(O)c1cc(C(=O)c2ccc(Cl)cc2Cl)c[nH]1"
  unit-info: "µM"
  IC50: 34

----------
system-under-test: GluN1/N2B (Rattus norvegicus)
assay-details: Two-electrode voltage-clamp recordings, Xenopus oocytes expressing GluN1/N2B
test-parameters: co-applied with 100 μM glutamate and 0.5 μM glycine

- compound-smiles: "O=C(O)c1cc(Nc2nc(-c3cccnc3)cs2)ccc1O"
  IC50: "> 300 µM"

----------
system-under-test: GluN1(F484A/T518L)/N3B (Rattus norvegicus)
assay-details: Two-electrode voltage-clamp recordings, Xenopus oocytes expressing GluN1
Format: cell-based

- compound-smiles: "O=c1[nH]c2nonc2nc1O"
  system-under-test: "GluN1(F484A/T518L)/N3B (Rattus norvegicus)"
  Ki, µM: 39

----------
system-under-test: GluN1/N2D (Rattus norvegicus, UniProt P35439)
assay-details: Two-electrode voltage-clamp recordings, Xenopus oocytes expressing GluN1/N2D
test-parameters: co-applied with 100 μM glutamate and 0.5 μM glycine

- compound-smiles: "O=C(O)c1cc(Nc2nc(-c3cccnc3)cs2)ccc1O"
  IC50: "> 300 µM"

----------
system-under-test: UniProt:P19490
assay-details: Two-electrode voltage-clamp recordings, Xenopus oocytes expressing GluA1
Type: cell-based
test-parameters: co-applied with 30 μM glutamate
reported-metric: IC50

- compound-smiles: "O=C(O)c1cc(Nc2nc(-c3cccnc3)cs2)ccc1O"
  system-under-test: "UniProt:P19490"
  reported-metric: "IC50"
  assay-result: "> 300 µM"

----------
system-under-test: GluA1 (Rattus norvegicus, UniProt P19490)
Sequence (P19490 19-907): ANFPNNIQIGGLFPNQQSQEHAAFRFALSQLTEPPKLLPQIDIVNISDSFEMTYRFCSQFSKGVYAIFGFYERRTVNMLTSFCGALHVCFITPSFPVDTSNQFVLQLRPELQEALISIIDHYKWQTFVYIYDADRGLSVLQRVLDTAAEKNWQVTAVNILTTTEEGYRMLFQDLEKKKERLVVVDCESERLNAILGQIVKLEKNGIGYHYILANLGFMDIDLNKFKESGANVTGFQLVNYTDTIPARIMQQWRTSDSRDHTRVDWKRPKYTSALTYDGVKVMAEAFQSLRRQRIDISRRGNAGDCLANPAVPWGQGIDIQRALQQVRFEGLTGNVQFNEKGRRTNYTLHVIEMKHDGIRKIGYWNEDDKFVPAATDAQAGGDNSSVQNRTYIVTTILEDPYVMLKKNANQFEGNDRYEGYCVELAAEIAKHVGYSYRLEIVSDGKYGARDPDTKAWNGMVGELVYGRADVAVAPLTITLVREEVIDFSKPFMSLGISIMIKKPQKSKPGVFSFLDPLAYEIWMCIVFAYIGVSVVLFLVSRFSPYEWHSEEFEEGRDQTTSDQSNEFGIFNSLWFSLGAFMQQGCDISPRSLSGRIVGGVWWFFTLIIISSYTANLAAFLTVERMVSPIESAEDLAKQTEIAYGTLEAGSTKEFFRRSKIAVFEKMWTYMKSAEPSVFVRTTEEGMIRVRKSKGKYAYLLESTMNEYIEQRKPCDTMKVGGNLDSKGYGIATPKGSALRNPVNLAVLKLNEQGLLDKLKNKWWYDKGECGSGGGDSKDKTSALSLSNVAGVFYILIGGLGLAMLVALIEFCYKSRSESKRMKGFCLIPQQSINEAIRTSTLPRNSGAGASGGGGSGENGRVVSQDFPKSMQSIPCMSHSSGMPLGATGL
assay-details: Two-electrode voltage-clamp recordings, Xenopus oocytes expressing GluA1
Type: cell-based

- compound-smiles: "O=c1[nH]c2nonc2nc1O"
  system-under-test: "GluA1 (Rattus norvegicus, UniProt P19490)"
  IC50: "> 300 µM"

----------
system-under-test: GluN1/N2A (Rattus norvegicus, UniProt P35439+Q00959)
assay-details: Two-electrode voltage-clamp recordings, Xenopus oocytes expressing GluN1/N2A
pIC50: −log10 of the molar value.

- compound-smiles: "O=C(O)c1cc(C(=O)c2ccc(Cl)cc2Cl)c[nH]1"
  relation: "="
  pIC50: 3.57
- compound-smiles: "O=c1[nH]c2nonc2nc1O"
  relation: "<"
  pIC50: 3.52

----------
system-under-test: GluN1/N2C (Rattus norvegicus, UniProt P35439)
assay-details: Two-electrode voltage-clamp recordings, Xenopus oocytes expressing GluN1/N2C
test-parameters: co-applied with 100 μM glutamate and 0.5 μM glycine

- compound: "O=C(O)c1cc(Nc2nc(-c3cccnc3)cs2)ccc1O [TK13]"
  IC50: "> 300 µM"

----------
system-under-test: GluN1/N2A (Rattus norvegicus, UniProt P35439+Q00959)
assay-details: Two-electrode voltage-clamp recordings, Xenopus oocytes expressing GluN1/N2A

- compound-smiles: "O=c1[nH]c2nonc2nc1O"
  Ki: "> 290 µM"

----------
system-under-test: GluN1/N2D (Rattus norvegicus, UniProt P35439+Q62645)
assay-details: Two-electrode voltage-clamp recordings, Xenopus oocytes expressing GluN1/N2D
pKi: −log10 of the molar value.
reported-metric: pKi

- compound-smiles: "O=c1[nH]c2nonc2nc1O"
  reported-metric: "pKi"
  assay-result: "< 3.68"

----------
system-under-test: GluN1/N2B (Rattus norvegicus, UniProt P35439+Q00960)
assay-details: Two-electrode voltage-clamp recordings, Xenopus oocytes expressing GluN1/N2B
pIC50: −log10 of the molar value.

- compound-smiles: "O=C(O)c1cc(C(=O)c2ccc(Cl)cc2Cl)c[nH]1"
  pIC50: "< 3.52"
- compound-smiles: "O=c1[nH]c2nonc2nc1O"
  pIC50: "< 3.52"

----------
system-under-test: UniProt:P42260
Sequence (P42260 32-908): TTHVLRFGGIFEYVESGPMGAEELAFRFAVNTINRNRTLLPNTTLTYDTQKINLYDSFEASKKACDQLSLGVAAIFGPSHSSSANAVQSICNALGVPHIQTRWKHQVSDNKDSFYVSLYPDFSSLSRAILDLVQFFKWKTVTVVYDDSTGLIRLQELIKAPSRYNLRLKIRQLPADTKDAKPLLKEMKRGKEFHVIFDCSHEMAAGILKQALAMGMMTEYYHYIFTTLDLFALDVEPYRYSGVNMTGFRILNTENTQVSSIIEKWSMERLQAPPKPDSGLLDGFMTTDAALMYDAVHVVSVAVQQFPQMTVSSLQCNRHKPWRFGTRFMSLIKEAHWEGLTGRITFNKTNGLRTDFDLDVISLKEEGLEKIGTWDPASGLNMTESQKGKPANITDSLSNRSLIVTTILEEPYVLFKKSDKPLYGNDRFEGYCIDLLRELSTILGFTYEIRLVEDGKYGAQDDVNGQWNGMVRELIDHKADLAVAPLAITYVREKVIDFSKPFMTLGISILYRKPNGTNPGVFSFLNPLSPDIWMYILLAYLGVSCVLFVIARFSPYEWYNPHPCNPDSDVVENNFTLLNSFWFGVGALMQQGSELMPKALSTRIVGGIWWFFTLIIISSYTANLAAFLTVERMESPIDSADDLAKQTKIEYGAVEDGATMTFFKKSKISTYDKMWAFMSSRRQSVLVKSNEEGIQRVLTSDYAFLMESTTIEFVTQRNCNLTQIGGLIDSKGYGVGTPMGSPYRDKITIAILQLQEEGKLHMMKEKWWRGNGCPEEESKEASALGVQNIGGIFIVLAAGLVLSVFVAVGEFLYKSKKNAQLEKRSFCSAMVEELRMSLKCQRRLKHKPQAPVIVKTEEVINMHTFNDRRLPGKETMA
assay-details: Two-electrode voltage-clamp recordings, Xenopus oocytes expressing GluK2
Assay type: cell-based

- molecule: "O=c1[nH]c2nonc2nc1O [TK80]"
  system-under-test: "UniProt:P42260"
  IC50: "> 300 µM"

----------
system-under-test: GluN1/N2D (Rattus norvegicus, UniProt P35439+Q62645)
assay-details: Two-electrode voltage-clamp recordings, Xenopus oocytes expressing GluN1/N2D
Type: cell-based
test-parameters: pIC50 ± S.E.M., co-applied with 100 μM glutamate and 0.5 μM glycine

- compound-smiles: "O=C(O)c1cc(C(=O)c2ccc(Cl)cc2Cl)c[nH]1"
  IC50, µM: 79.4

----------
Listing of entries alongside the reported IC50.
system-under-test: GluN1/N2D (Rattus norvegicus, UniProt P35439+Q62645)
assay-details: Two-electrode voltage-clamp recordings, Xenopus oocytes expressing GluN1/N2D
Format: cell-based
test-parameters: IC50, co-applied with 100 μM glutamate and 0.5 μM glycine

- compound: "O=c1[nH]c2nonc2nc1O [TK80]"
  relation: ">"
  IC50 / µM: 300
- compound: "O=C(O)c1cc(C(=O)c2ccc(Cl)cc2Cl)c[nH]1 [TK30]"
  relation: "="
  IC50 / µM: 90

----------
system-under-test: GluN1/N2C (Rattus norvegicus, UniProt P35439+Q00961)
assay-details: Two-electrode voltage-clamp recordings, Xenopus oocytes expressing GluN1/N2C
Format: cell-based
pIC50: −log10 of the molar value.
Listing of entries alongside the reported pIC50.

- compound: "O=c1[nH]c2nonc2nc1O [TK80]"
  relation: "<"
  pIC50: 3.52
- compound: "O=C(O)c1cc(C(=O)c2ccc(Cl)cc2Cl)c[nH]1 [TK30]"
  relation: "="
  pIC50: 3.92

All figures here come from paper PMC3865070.
